pKd values by entry
- System: T1, human CD154, soluble antigen (human, UniProt P29965 116-261, limits assumed)
- T1 construct: KinExA uses 'soluble antigen'; also called CD40 ligand; CD40L
- T1 sequence (looked up): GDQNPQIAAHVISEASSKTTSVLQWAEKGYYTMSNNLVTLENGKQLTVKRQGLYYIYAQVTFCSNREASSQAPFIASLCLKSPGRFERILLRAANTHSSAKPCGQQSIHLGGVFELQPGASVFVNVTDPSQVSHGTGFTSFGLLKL
- Measurement Protocol: KinExA solution-phase equilibrium, Fab with soluble antigen
Reminder that pKd means the negative base-10 logarithm of the concentration expressed in mol/L.

Binder	Data Value
5c8 Fab Mutant #26 (heavy T30H/S54N; light S26D/Q27E/T33W) (Fab, V domains shown) VH: QVQLVQSGAEVVKPGASVKLSCKASGYIFHSYYMYWVKQAPGQGLEWIGEINPNNGDTNFNEKFKSKATLTVDKSASTAYMELSSLRSEDTAVYYCTRSDGRNDMDSWGQGTLVTVSS VL: DIVLTQSPATLSVSPGERATISCRADERVSSSWYSYMHWYQQKPGQPPKLLIKYASNLESGVPARFSGSGSGTDFTLTISSVEPEDFATYYCQHSWEIPPTFGGGTKLEIK	10.20
5c8 Fab Mutant #5 (light chain T33W) (Fab, V domains shown) VH: QVQLVQSGAEVVKPGASVKLSCKASGYIFTSYYMYWVKQAPGQGLEWIGEINPSNGDTNFNEKFKSKATLTVDKSASTAYMELSSLRSEDTAVYYCTRSDGRNDMDSWGQGTLVTVSS VL: DIVLTQSPATLSVSPGERATISCRASQRVSSSWYSYMHWYQQKPGQPPKLLIKYASNLESGVPARFSGSGSGTDFTLTISSVEPEDFATYYCQHSWEIPPTFGGGTKLEIK	9.80
5c8 Fab Mutant #16 (heavy T30H; light S26D/Q27E) (Fab, V domains shown) VH: QVQLVQSGAEVVKPGASVKLSCKASGYIFHSYYMYWVKQAPGQGLEWIGEINPSNGDTNFNEKFKSKATLTVDKSASTAYMELSSLRSEDTAVYYCTRSDGRNDMDSWGQGTLVTVSS VL: DIVLTQSPATLSVSPGERATISCRADERVSSSTYSYMHWYQQKPGQPPKLLIKYASNLESGVPARFSGSGSGTDFTLTISSVEPEDFATYYCQHSWEIPPTFGGGTKLEIK	10.15
5c8 Fab Mutant #24 (heavy T30H/Y33W; light S26D/Q27E) (Fab, V domains shown) VH: QVQLVQSGAEVVKPGASVKLSCKASGYIFHSYWMYWVKQAPGQGLEWIGEINPSNGDTNFNEKFKSKATLTVDKSASTAYMELSSLRSEDTAVYYCTRSDGRNDMDSWGQGTLVTVSS VL: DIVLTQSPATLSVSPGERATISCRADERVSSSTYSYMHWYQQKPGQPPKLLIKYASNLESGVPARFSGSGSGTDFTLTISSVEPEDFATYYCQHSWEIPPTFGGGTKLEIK	10.28

Record 5c8 Fab Mutant #20 (heavy S54N; light S26D/Q27E/T33W) (Fab, V domains shown) VH: QVQLVQSGAEVVKPGASVKLSCKASGYIFTSYYMYWVKQAPGQGLEWIGEINPNNGDTNFNEKFKSKATLTVDKSASTAYMELSSLRSEDTAVYYCTRSDGRNDMDSWGQGTLVTVSS VL: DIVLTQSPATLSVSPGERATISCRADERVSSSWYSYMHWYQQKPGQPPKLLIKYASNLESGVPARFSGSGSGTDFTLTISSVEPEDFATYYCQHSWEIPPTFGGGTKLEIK , field pKd: 10.36
